Where do the numbers come from? From patent US20260015426A1.

# Assayed system: T1, human IL1RAP (hu-IL1RAP) on human cells (human, UniProt Q9NPH3 21-570)
# T1 sequence: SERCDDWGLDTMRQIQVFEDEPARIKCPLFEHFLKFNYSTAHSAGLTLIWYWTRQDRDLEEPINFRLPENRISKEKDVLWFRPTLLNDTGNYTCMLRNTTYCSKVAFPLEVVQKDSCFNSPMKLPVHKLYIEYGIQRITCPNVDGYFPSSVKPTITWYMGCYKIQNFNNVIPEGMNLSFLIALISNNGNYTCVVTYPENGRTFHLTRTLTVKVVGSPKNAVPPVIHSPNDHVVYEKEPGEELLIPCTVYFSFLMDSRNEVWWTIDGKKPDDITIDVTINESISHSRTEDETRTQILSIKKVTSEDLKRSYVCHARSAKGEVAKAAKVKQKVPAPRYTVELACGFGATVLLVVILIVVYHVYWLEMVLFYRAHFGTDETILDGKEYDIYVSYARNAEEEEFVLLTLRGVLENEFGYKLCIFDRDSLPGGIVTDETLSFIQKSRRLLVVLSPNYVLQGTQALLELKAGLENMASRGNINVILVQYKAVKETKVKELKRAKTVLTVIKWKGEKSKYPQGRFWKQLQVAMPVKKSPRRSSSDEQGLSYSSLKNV
# Protocol: cell-based or functional assay
Measure name: HEK-Blue SEAP, IL-1β, % inhibition (supernatant) (%)

{"Binder": "9D5 (purified mAb from hybridoma 9D5) (antibody, V domains shown, Mouse hybridoma mAb) VH: QVQLQQSGAELARPGASVKFSCKASGYTFTSYWMQWVKQRPGQGLEWIGTIYPGDGNTRYTQKFKGKATLTADKSSSTAYMQLSGLASEDSAVYYCARGYFGNLVFDVWGAGTTVTVSS VL: DIKMTQSPSSMYASLGERVTITCKASQDINTYLSWFLQKPGKSPKTLIYRADRLVDGVPSRFSGGGSGQDYSLTISSLEYEDLGIYYCLQYDEFPYTFGSGTKLEIK", "Reported value": 40}
